molecular target: Peroxisome proliferator-activated receptor gamma (Homo sapiens) (UniProt P37231); assay: ATG_PPARg_TRANS: Attagene TRANS-FACTORIAL HepG2 Assay for human Peroxisome Proliferator-activated Receptor-gamma (PPARg) (AID 2283007)
Sequence (P37231 whole entry, looked up): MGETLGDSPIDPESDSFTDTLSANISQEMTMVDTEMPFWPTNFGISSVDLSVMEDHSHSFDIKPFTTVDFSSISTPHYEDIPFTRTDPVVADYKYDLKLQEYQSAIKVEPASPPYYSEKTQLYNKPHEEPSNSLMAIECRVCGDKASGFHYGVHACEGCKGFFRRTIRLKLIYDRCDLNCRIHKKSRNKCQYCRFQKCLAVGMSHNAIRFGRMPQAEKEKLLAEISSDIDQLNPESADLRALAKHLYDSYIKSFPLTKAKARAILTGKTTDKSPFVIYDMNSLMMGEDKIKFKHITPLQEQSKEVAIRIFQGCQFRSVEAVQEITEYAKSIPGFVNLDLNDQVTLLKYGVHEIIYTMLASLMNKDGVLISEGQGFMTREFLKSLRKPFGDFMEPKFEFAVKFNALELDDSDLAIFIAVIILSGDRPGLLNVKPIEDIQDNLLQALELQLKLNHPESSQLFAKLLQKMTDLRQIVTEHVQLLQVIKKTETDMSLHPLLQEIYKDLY
Results filed as inconclusive are left out. Activity calls are given as the source filed them. Rule for the calls: active = hit-call score of the fitted dose curve at least 0.9, where 1 is the maximum; inconclusive = response in the unintended direction; inactive = score below 0.9.
Outcomes: active, inactive

{"compound": "O=C1O[C@@H]2[C@@H](O)[C@H](O)O[C@@H]2[C@H]1O", "categoryLabel": "inactive"}
{"compound": "CCCCNC(=O)NS(=O)(=O)c1ccc(C)cc1", "categoryLabel": "inactive"}
{"compound": "CCCC(=O)OCCC(C)CCC=C(C)C (configuration not stated)", "categoryLabel": "active"}
{"compound": "O=C(O)C[C@H](O)C[C@H](O)/C=C/c1c(C2CC2)nc2ccccc2c1-c1ccc(F)cc1", "categoryLabel": "active"}
{"compound": "O=C[C@H](O)[C@H](O)[C@H](O)CO", "categoryLabel": "inactive"}
{"compound": "CCC/C=C/C=O", "categoryLabel": "active"}
{"compound": "C[Si](O[Si](C)(C)C)O[Si](C)(C)C", "categoryLabel": "inactive"}

* * *

test: ATG_NRF2_ARE_CIS: Attagene CIS-FACTORIAL HepG2 Assay for human Nuclear Factor Erythroid 2 Related Factor 2 (NFR2) response to Antioxidant Response Elements (ARE) (AID 2282992); conditions: HepG2 Attagene ARE/NRF2 reporter, transcription factor activity; actives raise or lower the signal
Active and inactive are the calls of the source. How the source made its calls: active means hit-call score of the fitted dose curve at least 0.9, where 1 is the maximum; inactive means score below 0.9.
Classes used: 1.0 (active), 0.0 (inactive)

{"molecule": "CC(=O)[C@H]1CC[C@H]2[C@@H]3CC=C4C[C@@H](O)CC[C@]4(C)[C@H]3CC[C@]12C", "categoryLabel": 1.0}
{"molecule": "CCC(=O)OCCC(C)CCC=C(C)C (centres undefined)", "categoryLabel": 1.0}
{"molecule": "CCCCc1ccc(N)cc1", "categoryLabel": 1.0}
{"molecule": "OCCCCCO", "categoryLabel": 0.0}
{"molecule": "Nc1cc(Cl)c(O)c(Cl)c1", "categoryLabel": 1.0}
{"molecule": "CCCCCCOC(=O)CCCCC", "categoryLabel": 0.0}
{"molecule": "CC(=O)C(=O)O", "categoryLabel": 0.0}
{"molecule": "CCCCCCCCCCCCCCCC(=O)O", "categoryLabel": 0.0}
{"molecule": "C=CC(C)(CCC=C(C)C)OC=O (centres undefined)", "categoryLabel": 1.0}
{"molecule": "CC(C)C[C@H]1C(=O)N2CCC[C@H]2[C@]2(O)O[C@](NC(=O)[C@@H]3C=C4c5cccc6[nH]c(Br)c(c56)C[C@H]4N(C)C3)(C(C)C)C(=O)N12", "categoryLabel": 1.0}
{"molecule": "CC(CN1c2ccccc2Sc2ccccc21)N(C)C (centres undefined)", "categoryLabel": 0.0}
{"molecule": "C=CC(=O)OCCn1c(=O)n(CCOC(=O)C=C)c(=O)n(CCOC(=O)C=C)c1=O", "categoryLabel": 1.0}
{"molecule": "Cc1ccc2sc3cccc(C)c3c2c1", "categoryLabel": 0.0}
{"molecule": "O=C(O)CN(CCN(CC(=O)O)CC(=O)O)CCN(CC(=O)O)CC(=O)O", "categoryLabel": 0.0}
{"molecule": "COc1ccc(O)cc1", "categoryLabel": 0.0}
{"molecule": "CC(C)=CCO", "categoryLabel": 0.0}
{"molecule": "NCCCCCCN", "categoryLabel": 0.0}
{"molecule": "Cc1c(N(C)C)c(=O)n(-c2ccccc2)n1C", "categoryLabel": 0.0}
{"molecule": "CC(=O)Nc1ccc(C)cc1C", "categoryLabel": 0.0}
{"molecule": "c1ccc2c(c1)c1cccc3ccc4cccc2c4c31", "categoryLabel": 0.0}
{"molecule": "CC(C)OP(=O)(CP(=O)(OC(C)C)OC(C)C)OC(C)C", "categoryLabel": 0.0}
{"molecule": "O=C1O[C@@H]2[C@@H](O)[C@H](O)O[C@@H]2[C@H]1O", "categoryLabel": 0.0}
{"molecule": "O=C(O)CCCCC1CCSS1 (centres undefined)", "categoryLabel": 1.0}
{"molecule": "CCCCCOC(=O)CCC", "categoryLabel": 0.0}
{"molecule": "CC(=O)C(C)=O", "categoryLabel": 1.0}
{"molecule": "CCCC(=O)OCCC(C)CCC=C(C)C (centres undefined)", "categoryLabel": 1.0}
{"molecule": "C=COCCOCCOCCOC=C", "categoryLabel": 0.0}
{"molecule": "CC(C)(C)c1n[nH]c(=S)n(N)c1=O", "categoryLabel": 0.0}
{"molecule": "O=c1[nH]nnc2ccccc12", "categoryLabel": 0.0}
